Data provenance is patent US20230135152A1.

target-under-test: PIKFYVE (Homo sapiens, UniProt Q9Y2I7)
Sequence (Q9Y2I7 whole entry): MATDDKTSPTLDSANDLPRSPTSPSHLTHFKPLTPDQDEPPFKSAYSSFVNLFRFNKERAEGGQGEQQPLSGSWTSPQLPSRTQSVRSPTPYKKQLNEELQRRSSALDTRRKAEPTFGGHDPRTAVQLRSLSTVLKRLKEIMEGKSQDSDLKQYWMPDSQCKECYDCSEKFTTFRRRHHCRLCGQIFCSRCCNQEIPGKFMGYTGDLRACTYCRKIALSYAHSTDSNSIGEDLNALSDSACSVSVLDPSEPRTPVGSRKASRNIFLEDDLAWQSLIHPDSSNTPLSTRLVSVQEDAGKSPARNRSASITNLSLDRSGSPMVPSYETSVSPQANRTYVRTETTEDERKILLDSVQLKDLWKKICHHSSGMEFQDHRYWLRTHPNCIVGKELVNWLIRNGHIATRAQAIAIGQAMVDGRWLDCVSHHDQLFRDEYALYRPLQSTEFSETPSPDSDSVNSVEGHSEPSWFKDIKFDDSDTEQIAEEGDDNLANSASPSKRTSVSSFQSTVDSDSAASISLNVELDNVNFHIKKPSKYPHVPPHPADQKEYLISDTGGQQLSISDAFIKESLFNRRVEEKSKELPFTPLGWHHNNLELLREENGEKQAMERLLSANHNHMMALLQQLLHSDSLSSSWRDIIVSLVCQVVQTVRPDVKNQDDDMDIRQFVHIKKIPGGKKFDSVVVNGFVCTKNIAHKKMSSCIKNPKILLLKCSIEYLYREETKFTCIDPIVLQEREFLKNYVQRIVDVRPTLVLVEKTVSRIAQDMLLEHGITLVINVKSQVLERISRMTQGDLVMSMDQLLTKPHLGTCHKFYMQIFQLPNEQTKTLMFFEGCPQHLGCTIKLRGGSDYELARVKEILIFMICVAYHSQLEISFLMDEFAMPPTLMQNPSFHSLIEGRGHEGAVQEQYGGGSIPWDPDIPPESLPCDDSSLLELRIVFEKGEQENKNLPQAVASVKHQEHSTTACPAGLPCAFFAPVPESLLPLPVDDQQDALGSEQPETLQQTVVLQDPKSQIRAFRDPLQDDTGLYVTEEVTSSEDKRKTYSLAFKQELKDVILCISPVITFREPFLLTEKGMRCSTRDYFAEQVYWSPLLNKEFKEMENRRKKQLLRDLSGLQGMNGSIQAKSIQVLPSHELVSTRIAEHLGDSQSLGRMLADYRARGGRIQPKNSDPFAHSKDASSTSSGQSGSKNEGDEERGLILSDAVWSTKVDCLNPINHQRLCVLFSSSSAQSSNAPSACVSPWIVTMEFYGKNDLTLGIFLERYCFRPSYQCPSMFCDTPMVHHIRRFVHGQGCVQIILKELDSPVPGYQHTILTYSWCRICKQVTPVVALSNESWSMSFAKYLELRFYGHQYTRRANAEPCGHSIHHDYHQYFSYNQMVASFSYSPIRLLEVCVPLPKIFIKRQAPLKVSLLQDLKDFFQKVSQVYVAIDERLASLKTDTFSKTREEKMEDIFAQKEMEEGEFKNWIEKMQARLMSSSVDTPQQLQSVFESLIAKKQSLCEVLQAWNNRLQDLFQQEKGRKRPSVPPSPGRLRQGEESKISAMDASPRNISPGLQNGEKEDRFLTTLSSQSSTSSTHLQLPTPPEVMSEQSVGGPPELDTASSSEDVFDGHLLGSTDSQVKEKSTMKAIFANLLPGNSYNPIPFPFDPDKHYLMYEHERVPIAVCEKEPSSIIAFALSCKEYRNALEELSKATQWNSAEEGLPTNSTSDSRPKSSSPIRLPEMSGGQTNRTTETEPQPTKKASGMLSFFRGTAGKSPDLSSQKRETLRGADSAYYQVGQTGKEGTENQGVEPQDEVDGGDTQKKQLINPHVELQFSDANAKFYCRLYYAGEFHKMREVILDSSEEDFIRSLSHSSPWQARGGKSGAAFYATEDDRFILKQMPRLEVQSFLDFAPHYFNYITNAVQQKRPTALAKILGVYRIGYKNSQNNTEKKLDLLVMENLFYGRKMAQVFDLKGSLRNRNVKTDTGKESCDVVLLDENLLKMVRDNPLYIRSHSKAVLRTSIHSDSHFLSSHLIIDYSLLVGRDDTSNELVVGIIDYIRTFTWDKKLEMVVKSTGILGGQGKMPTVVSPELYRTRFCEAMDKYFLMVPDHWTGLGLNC
method-summary: Cell-based Pikfyve inhibition activity assay (EEA1 staining, mean vesicle size in BJ fibroblast cells)
settings: Table 4, 4 hours treatment, 3 μM Apilimod = 100% inhibition
pEC50: −log10 of the molar value.
measurement-name: pEC50

1. COc1cccc(-c2ccn(-c3cc(N4CCOCC4)nc([C@@H](CO)OC)n3)n2)c1; 6.30 to 7.00
2. Cc1cc(Oc2ccn(-c3cc(N4CCOCC4)nc(OCCc4cnn(C)c4)n3)n2)ccn1; < 5.30
3. Cn1cc(CCOc2nc(N3CCOCC3)cc(-n3ccc(-c4ccccc4)n3)n2)cn1; 7.00 to 7.70
4. CO[C@H](CO)c1nc(N2CCOCC2)cc(-n2ccc(-c3cn(C)c4ccccc34)n2)n1 (single isomer, unassigned); 7.00 to 7.70

====

target-under-test: PIKFYVE (Homo sapiens, UniProt Q9Y2I7)
method-summary: PIKFYVE assay (luciferase ADP-Glo kinase assay, Promega)
Format: biochemical
settings: Table 3
Experimental: The activity of Compounds 1-20 was measured using a PIKFYVE assay (luciferase ADP-Glo kinase assay available from Promega Corp. of Madison, Wis.). The activity of Compounds 39-90 was also measured using a PIKFYVE assay (luciferase ADP-Glo kinase assay available from Promega Corp. of Madison, Wis.). The activity of Compounds 93-347 was also measured using a PIKFYVE assay (luciferase ADP-Glo kinase assay available from Promega Corp. of Madison, Wis.).
measurement-name: IC50

1. CC[C@@H](OC)c1nc(N2CCOCC2)cc(-n2ccc(-c3cccc(C)c3)n2)n1 (single isomer, unassigned); 3 to 10 nM
2. Cc1cccc(-c2ccn(-c3cc(N4CCOCC4)n4ncc(C)c4n3)n2)c1; 10 to 100 nM
3. CCCc1ccn(-c2cc(N3CCOCC3)nc(OCCc3cnn(C)c3)n2)n1; > 5000 nM
4. Cn1cc(CCOc2nc(N3CCOCC3)cc(-n3ccc(Oc4ccncc4)n3)n2)cn1; 100 to 5000 nM
5. Cc1cc(-c2ccccc2)nn1-c1cc(N2CCOCC2)nc(N)n1; 100 to 5000 nM
6. Cn1cc(CCOc2nc(N3CCOCC3)cc(-n3ccc(C4CCC4)n3)n2)cn1; 100 to 5000 nM
7. CO[C@@H](CO)c1nc(N2CCOCC2)cc(-n2ccc(-c3cnc4ccccn34)n2)n1; 100 to 5000 nM
8. Cc1cccc(-c2cc(CN(C)C)n(-c3cc(N4CCOCC4)c4[nH]ccc4n3)n2)c1; 3 to 10 nM
9. CO[C@H](C)c1cccc(-c2ccn(-c3cc(N4CCOCC4)nc(OCCc4cnn(C)c4)n3)n2)c1 (single isomer, unassigned); 10 to 100 nM
10. CCO[C@H](CO)c1nc(N2CCOCC2)cc(-n2ccc(-c3cccc(C)c3)n2)n1 (single isomer, unassigned); 3 to 10 nM
11. CO[C@H](CO)c1nc(N2CCOCC2)cc(-n2ccc(-c3c[nH]c4ccccc34)n2)n1 (single isomer, unassigned); < 3 nM
12. Cc1cccc(-c2ccn(-c3cc(N4CCOCC4)nc(OCCn4cnc(CN(C)C)c4)n3)n2)c1; 10 to 100 nM
13. Cc1cccc(-c2ccn(-c3cc(N4CCOCC4)n4nc(C)cc4n3)n2)c1; 10 to 100 nM
14. CN(C)C(=O)c1cc(-c2ccccc2)nn1-c1cc(N2CCOCC2)nc(OCCc2cnn(C)c2)n1; 100 to 5000 nM
15. COC(CO)(c1ccccc1)c1nc(N2CCOCC2)cc(-n2ccc(-c3cccc(C)c3)n2)n1 (stereo not shown) [Compound 229]; 3 to 10 nM
16. Cc1cccc(-c2ccn(-c3cc(N4CCOCC4)nc([C@@H]4COCCO4)n3)n2)c1 (single isomer, unassigned); 10 to 100 nM
17. Cc1cccc(-c2ccn(-c3cc(N4CCOCC4)nc(N(C)C)n3)n2)c1; 10 to 100 nM
18. Cc1cccc(-c2cc(C)n(-c3cc(N4CCOCC4)nc(OCCc4cnn(C)c4)n3)n2)c1; < 3 nM
19. Cc1cccc(-c2ccn(-c3cc(N4CCOCC4)c4c(ccn4C)n3)n2)c1; 100 to 5000 nM
20. Cc1cccc(-c2ccn(-c3cc(N4CCOCC4)nc([C@H]4CCCO4)n3)n2)c1 (single isomer, unassigned); 3 to 10 nM
21. Cc1cc(-c2ccccc2)nn1-c1cc(N2CCOCC2)nc(OCCc2cnn(C)c2)n1; < 3 nM
22. Cn1cc(CCOc2nc(N3CCOCC3)cc(-n3nc(-c4ccccc4)cc3CO)n2)cn1; < 3 nM
23. CCc1cc(-c2ccccc2)nn1-c1cc(N2CCOCC2)nc([C@@H](CO)OC)n1; 10 to 100 nM
24. COC(CO)c1nc(N2CCOCC2)cc(-n2ccc(-c3cccc(C)c3)n2)n1 (racemic); 3 to 10 nM
25. Cc1c2cc(CN(C)C)ccc2nn1-c1cc(N2CCOCC2)nc(OCCc2cnn(C)c2)n1; 100 to 5000 nM
26. COC(C)(C)c1nc(N2CCOCC2)cc(-n2ccc(-c3cccc(C)c3)n2)n1; 3 to 10 nM
27. C/C=C/COc1nc(N2CCOCC2)cc(-n2ccc(-c3cccc(C)c3)n2)n1; < 3 nM
28. Cn1cc(CCOc2nc(N3CCOCC3)cc(-n3ccc(C4=CC(C)(C)CC=C4)n3)n2)cn1; 100 to 5000 nM
29. Cc1cccc(-c2ccn(-c3cc(N4CCOCC4)nc(CCc4cccnn4)n3)n2)c1; 3 to 10 nM
30. Cc1cccc(CC(=O)Nc2nc(OCCc3cnn(C)c3)cc(N3CCOCC3)n2)c1; > 5000 nM
31. Cc1cccc(-c2ccn(-c3cc(N4CCOCC4)nc([C@@H](CO)OC(F)F)n3)n2)c1 (single isomer, unassigned); 3 to 10 nM

====

target-under-test: PIKFYVE (Homo sapiens)
method-summary: Cell-based Pikfyve inhibition activity assay (EEA1 staining, mean vesicle size in BJ fibroblast cells)
settings: Table 4, 4 hours treatment, 3 μM Apilimod = 100% inhibition
measurement-name: EC50

1. Cn1cc(CCOc2nc(Oc3cc(-c4ccccc4)nn3C)cc(N3CCOCC3)n2)cn1 [Compound 212]; 500 to 5000 nM
2. Cc1cccc(-c2ccn(-c3cc(N4CCOCC4)nc(OCCc4cnn(C)c4)n3)n2)c1 [Compound 56]; < 20 nM
3. Cn1cc(CCOc2nc(N3CCOCC3)cc(-n3nc(-c4ccccc4)cc3CO)n2)cn1 [Compound 233]; 20 to 100 nM
4. Cn1cc(CCOc2nc(N3CCOCC3)cc(-n3nc(-c4ccccc4)cc3C3CC3)n2)cn1 [Compound 216]; 20 to 100 nM
5. COCc1cccc(-c2ccn(-c3cc(N4CCOCC4)nc([C@@H](CO)OC)n3)n2)c1 [Compound 276]; 100 to 500 nM
6. Cc1cccc(-c2ccn(-c3cc(N4CCOCC4)nc(COCc4cn[nH]c4)n3)n2)c1 [Compound 300]; 20 to 100 nM
7. Cc1cccc(-c2ccn(-c3cc(N4CCOCC4)nc(OCc4ccn(CCN(C)C)n4)n3)n2)c1 [Compound 238]; 100 to 500 nM
8. Cc1cccc(-c2ccn(-c3cc(N4CCOCC4)nc(CCc4cccnn4)n3)n2)c1 [Compound 317]; 100 to 500 nM
9. Cc1cccc(-c2ccn(-c3cc(N4CCOCC4)nc(OCCNc4ccccc4)n3)n2)c1 [Compound 99]; 100 to 500 nM
10. C[C@H](O)c1cccc(-c2ccn(-c3cc(N4CCOCC4)nc(OCCc4cnn(C)c4)n3)n2)c1 (single isomer, unassigned) [Compound 316]; 20 to 100 nM
11. Cn1cc(CCOc2nc(N3CCOCC3)cc(-n3ccc(Oc4ccncc4)n3)n2)cn1 [Compound 303]; > 5000 nM
12. CO[C@@H](C)c1cccc(-c2ccn(-c3cc(N4CCOCC4)nc(OCCc4cnn(C)c4)n3)n2)c1 (single isomer, unassigned) [Compound 341]; < 20 nM
13. COC(CO)c1nc(N2CCOCC2)cc(-n2ccc(-c3cccc(C)c3)n2)n1 (racemic) [Compound 156]; 100 to 500 nM
14. Cc1cccc(-c2ccn(-c3cc(N4CCOCC4)nc(CCc4cnn(C)c4)n3)n2)c1 [Compound 223]; 100 to 500 nM
15. Cc1cccc(-c2cc(C)n(-c3cc(N4CCOCC4)nc(OCCc4cnn(C)c4)n3)n2)c1 [Compound 219]; 20 to 100 nM

====

target-under-test: UniProtKB Q9Y2I7
method-summary: PIKFYVE assay (luciferase ADP-Glo kinase assay, Promega)
Type: biochemical
settings: Table 3
The following compounds are listed with their measured IC50 values.
measurement-name: IC50

1. Cn1cc(CCOc2nccc(N3CCOCC3)n2)cn1 [Compound 173]; > 5000 nM
2. Cc1cccc(-c2ccn(-c3cc(N4CCOCC4)nc(NC(=O)Cc4cnn(C)c4)n3)n2)c1 [Compound 186]; < 3 nM
3. Cc1cccc(-c2ccn(-c3cc(N4CCOCC4)nc(/C=C/c4cnn(C)c4)n3)n2)c1 [Compound 304]; 3 to 10 nM
4. CN(c1nc(OCCc2cnn(C)c2)cc(N2CCOCC2)n1)c1ncc2ccccc2n1 [Compound 252]; > 5000 nM
5. COCc1cccc(-c2ccn(-c3cc(N4CCOCC4)nc([C@H](CO)OC)n3)n2)c1 [Compound 277]; 3 to 10 nM
6. Cc1cccc(-c2ccn(-c3cc(N4CCOCC4)nc(OCCNc4ccccc4)n3)n2)c1 [Compound 99]; 10 to 100 nM
7. COc1cccc(-c2ccn(-c3cc(N4CCOCC4)nc([C@H](CO)OC)n3)n2)c1 [Compound 263]; 10 to 100 nM
8. CC#CCCOc1nc(N2CCOCC2)cc(-n2ccc(-c3cccc(C)c3)n2)n1 [Compound 104]; < 3 nM
